assay: Volume of distribution at steady state in rhesus monkey at 1 mg/kg, iv or 2 mg/kg, po administered as single dose; assay type: ADME, organism-based, Macaca mulatta; conditions: in vivo, read-out: Vdss
property-measured: Vd (L/kg)
Number only, in L/kg; omit the unit.

Summary for this compound, COc1cc(-c2ccc([C@@H]3CCc4ccc([C@H](C5CC5)[C@H](C)C(=O)[O-])cc4O3)c(F)c2)ccn1.[Na+] : Vd is 0.48

---

biological target: Free fatty acid receptor 1 (Homo sapiens); experiment: Agonist activity at recombinant human GPR40 expressed in HEK293 cells assessed as increase in IP1 accumulation measured after 60 mins in presence of 100% human serum by HTRF assay relative to AM-1638; type: functional, cell-based
Sequence (O14842 whole entry): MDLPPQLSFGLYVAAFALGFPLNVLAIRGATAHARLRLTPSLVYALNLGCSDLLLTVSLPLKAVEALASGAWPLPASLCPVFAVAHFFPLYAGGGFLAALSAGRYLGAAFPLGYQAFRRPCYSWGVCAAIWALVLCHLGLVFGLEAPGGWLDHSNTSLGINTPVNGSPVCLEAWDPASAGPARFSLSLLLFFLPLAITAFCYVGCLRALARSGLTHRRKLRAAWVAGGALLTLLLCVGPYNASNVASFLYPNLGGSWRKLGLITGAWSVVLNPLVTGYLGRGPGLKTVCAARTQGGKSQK
property-measured: max activation

Sample records with max activation:
molecule	obs-value
O=C(O)C[C@H](c1ccc2c(c1)OC(c1ccc(-c3cccc(OC(F)(F)F)c3)cc1)CC2)C1CC1 (mixture of isomers)	73%
COc1cc(-c2ccc(C3CCc4ccc([C@H](C5CC5)[C@H](C)C(=O)O)cc4O3)c(F)c2)ccn1 (mixture of isomers)	> 179%
CSc1cccc(-c2ccc(C3CCc4ccc([C@@H](CC(=O)O)C5CC5)cc4O3)cc2)c1 (mixture of isomers)	144%
O=C(O)C[C@H](c1ccc2c(c1)OC(c1ccc(-c3ccccc3)cc1)CC2)C1CC1 (single isomer, unassigned)	57%
COc1ccc(F)c(-c2ccc(C3CCc4ccc([C@H](C5CC5)[C@H](C)C(=O)O)cc4O3)cn2)c1 (stereo in doubt; 18)	> 179%
COc1cc(-c2ccc(C3CCc4ccc([C@H](C5CC5)[C@H](C)C(=O)O)cc4O3)nc2)c(F)cn1 (stereo in doubt; 29)	> 179%
COc1cc(-c2ccc(C3CCc4ccc([C@H](C5CC5)[C@H](C)C(=O)O)cc4O3)cc2)ccn1 (stereo in doubt; 23)	> 179%
COc1ccc(F)c(-c2ccc(C3CCc4ccc([C@H](C5CC5)[C@H](C)C(=O)O)cc4O3)nc2)c1 (stereo in doubt; 17)	> 179%

Summary for this molecule, COc1cc(-c2ccc(C3CCc4ccc([C@H](C5CC5)[C@H](C)C(=O)O)cc4O3)cc2)ccn1 (stereo in doubt; 22) : max activation is > 179%

Summary for this molecule, COc1cc(-c2ccc(C3CCc4ccc([C@@H](CC(=O)O)C5CC5)cc4O3)cc2)c(F)cn1 (stereo not given in full) : max activation is 224%

Summary for this molecule, COc1cc(-c2ccc(C3CCc4ccc([C@H](C5CC5)[C@H](C)C(=O)O)cc4O3)nc2)c(F)cn1 (stereo in doubt; 28) : max activation is > 179%

Summary for this molecule, COc1ccc(F)c(-c2ccc(C3CCc4ccc([C@H](C5CC5)[C@H](C)C(=O)O)cc4O3)cn2)c1 (stereo in doubt; 19) : max activation is > 179%

Summary for this molecule, COc1ccc(F)c(-c2ccc(C3CCc4ccc([C@H](C5CC5)[C@H](C)C(=O)O)cc4O3)cc2)c1 (stereo in doubt; 15) : max activation is > 179%

Summary for this molecule, COc1cc(-c2ccc(C3CCc4ccc([C@H](C5CC5)[C@H](C)C(=O)O)cc4O3)nc2)ccn1 (stereo in doubt; 32) : max activation is > 179%

Summary for this molecule, O=C(O)C[C@H](c1ccc2c(c1)OC(c1ccc(-c3cccc(O)c3)cc1)CC2)C1CC1 (mixture of isomers) : max activation is 231%
